Tested on: barley
assay_info: Test C preemergence/postemergence greenhouse plant response rating 0 to 100
Assay type: in vivo, Hordeum vulgare
measurement_parameters: Rate 4 g/ha; POSTEMERGENCE
For each entry below, report its Plant response rating (0 to 100), Barley Igri value.

Give the reported Plant response rating (0 to 100), Barley Igri for this compound. `C#CCN1C(=O)COc2cc(F)c(-c3nn4c(c3Cl)CCCC4)cc21`
30

Provide only the value of recorded Plant response rating (0 to 100), Barley Igri for `CC(C)COc1cc(-c2nn3c(c2Cl)CCCC3)c(F)cc1Cl`
30

Consider the compound `CC(C)N1C(=O)COc2cc(F)c(-c3nn4c(c3Cl)CCCC4)cc21` and give its recorded Plant response rating (0 to 100), Barley Igri.
30

Query Plant response rating (0 to 100), Barley Igri for `C=CCN1C(=O)COc2cc(F)c(-c3nn4c(c3Cl)CCCC4)cc21`
40

###

System: pigweed
assay_info: Test C preemergence/postemergence greenhouse plant response rating 0 to 100
Format: in vivo, Amaranthusretroflexus
measurement_parameters: Rate 31 g/ha; POSTEMERGENCE
From the text: The compounds evaluated in this test were formulated in a non-phytoxic solvent and applied to the soil surface before plant seedlings emerged (preemergence application), to water that covered the soil surface (flood application), and to plants that were in the one-to-four leaf stage (postemergence application). A sandy loam soil was used for the preemergence and postemergence tests, while a silt loam soil was used in the flood test. […]
Provide the reported Plant response rating (0 to 100), Pigweed of each item.
// return a plain number; no unit text

Report measured Plant response rating (0 to 100), Pigweed; entry is `Fc1cc(Cl)ccc1-c1nn2c(c1Br)CCCC2`
50

Could you please provide reported Plant response rating (0 to 100), Pigweed for `CCOC(=O)COc1cc(-c2nn3c(c2Cl)CCCC3)c(F)cc1Cl` ? Thanks!
90

Indicate the recorded Plant response rating (0 to 100), Pigweed value for this molecule: `C=C(Cl)COc1cc(-c2nn3c(c2Cl)CCCC3)c(F)cc1Cl`
95

Identify measured Plant response rating (0 to 100), Pigweed corresponding to `COCOc1cc(-c2nn3c(c2Cl)CCCC3)c(F)cc1Cl`
100

Using the record for `CC(C)OC(=O)COc1cc(-c2nn3c(c2Cl)CCCC3)c(F)cc1Cl` , state its measured Plant response rating (0 to 100), Pigweed.
100

Using the record for `C=CCN1C(=O)COc2cc(F)c(-c3nn4c(c3Br)CCCC4)cc21` , state its measured Plant response rating (0 to 100), Pigweed.
100

###

Assignment: determine reported Plant response rating, Soybean for the given compounds.
Tested on: soybean
assay_info: Test B preemergence/postemergence greenhouse plant response rating 0 to 10
Format: in vivo, Glycine max
measurement_parameters: POSTEMERGENCE, Rate 50 g/ha; 0 to 10 scale
I'd appreciate a reply containing only the number, no unit.

Specify Plant response rating, Soybean for C#CC(C)N1C(=O)COc2cc(F)c(-c3nn4c(c3Cl)CCCC4)cc21 (centres unmarked) and stop.
9

Answer with the recorded Plant response rating, Soybean for the compound listed here: C#CC(C)Oc1cc(-c2nn3c(c2Cl)CCCC3)c(Cl)cc1Cl (centres unmarked)
6

Supply Plant response rating, Soybean value. Item: COC(=O)C(C)Oc1cc(-c2nn3c(c2Cl)CCCC3)c(F)cc1Cl (centres unmarked)
8

Determine its reported Plant response rating, Soybean: `Oc1cc(-c2nn3c(c2Br)CCCC3)c(F)cc1Cl`
6

Return the recorded Plant response rating, Soybean value; entry: `CCN1C(=O)COc2cc(F)c(-c3nn4c(c3Cl)CCCC4)cc21`
9
